assay: in vitro; format: cell-based; settings: rabbit, rk-13 cells
Readout kind: CC50
Note: state the figure and append the unit.

The following molecules have reported results that may help.
{"Given smiles": "CSc1n[nH]c(NC(=O)c2ccccc2[N+](=O)[O-])n1", "Endpoint result": "63.1 µg/mL"}
{"Given smiles": "CSc1n[nH]c(NC(=O)c2ccccc2Cl)n1", "Endpoint result": "79.4 µg/mL"}
{"Given smiles": "CSc1n[nH]c(NC(=O)c2ccccc2SC)n1", "Endpoint result": "50.1 µg/mL"}

Batch request: CC50 per item, same order as input.
1. CSc1n[nH]c(NC(=O)c2ccccc2Br)n1
2. CSc1n[nH]c(NC(=O)c2ccccc2C)n1

Completion:
["79.4 µg/mL", "79.4 µg/mL"]

* * *

test: in vitro; assay type: cell-based; settings: human, hela cells
Kindly state CC50 for each of the entries shown.
Give bare numbers, in µg/mL.

{"Given smiles": "CSc1n[nH]c(NC(=O)c2ccccc2SC)n1", "Unit abbrev": "µg/mL", "Endpoint result": 79.4}
{"Given smiles": "CSc1n[nH]c(NC(=O)c2ccccc2C)n1", "Unit abbrev": "µg/mL", "Endpoint result": 100}
{"Given smiles": "CCSc1n[nH]c(NC(=O)c2ccccc2C)n1", "Unit abbrev": "µg/mL", "Endpoint result": 50.1}
{"Given smiles": "CSc1n[nH]c(NC(=O)c2ccccc2Br)n1", "Unit abbrev": "µg/mL", "Endpoint result": 126}

Give one value of CC50 per listed molecule.
1. CSc1n[nH]c(NC(=O)c2ccccc2[N+](=O)[O-])n1
2. CSc1n[nH]c(NC(=O)c2ccccc2Cl)n1

Completion:
1: 39.8; 2: 50.1

* * *

experiment: in vitro; assay type: cell-based; conditions: human, hela cells
Readout kind: MNTC (µg/mL)
One number for each entry, in µg/mL.

Examples with answers:
{"Given smiles": "CSc1n[nH]c(NC(=O)c2ccccc2C)n1", "Unit abbrev": "µg/mL", "Endpoint result": 39.8}
{"Given smiles": "CSc1n[nH]c(NC(=O)c2ccccc2SC)n1", "Unit abbrev": "µg/mL", "Endpoint result": 20}
{"Given smiles": "CSc1n[nH]c(NC(=O)c2ccccc2[N+](=O)[O-])n1", "Unit abbrev": "µg/mL", "Endpoint result": 10}
{"Given smiles": "CCSc1n[nH]c(NC(=O)c2ccccc2C)n1", "Unit abbrev": "µg/mL", "Endpoint result": 7.94}

Give one value of MNTC per listed molecule.
1. CSc1n[nH]c(NC(=O)c2ccccc2Cl)n1
2. CSc1n[nH]c(NC(=O)c2ccccc2Br)n1

Completion:
1. 7.94
2. 39.8

* * *

Answer each item with its documented MNTC.
experiment: in vitro; type: cell-based; details: rabbit, rk-13 cells
Numbers only, in µg/mL.

State recorded MNTC for all listed compounds.
1. CSc1n[nH]c(NC(=O)c2ccccc2SC)n1
2. CSc1n[nH]c(NC(=O)c2ccccc2C)n1
3. CSc1n[nH]c(NC(=O)c2ccccc2Cl)n1

Completion:
15.8
12.6
15.8

Provide each entry's MNTC from the list below.
1. CSc1n[nH]c(NC(=O)c2ccccc2Br)n1
2. CSc1n[nH]c(NC(=O)c2ccccc2[N+](=O)[O-])n1

Completion:
1: 25.1; 2: 15.8

Reference for the values: patent US4537899A
